The reported measurements were obtained from paper PMC13210772.

# protocol: Plasma stability
# Format: in vitro ADME
# experimental.setup: pooled human plasma, 37 °C, 10 μM, 120 min, read-out: 120 min—Compound Remaining %
measured.metric: remaining at 2 h, 10 µM (%)

Cc1ncsc1-c1ccc([C@H](C)NC(=O)[C@@H]2C[C@@H](O)CN2C(=O)[C@@H](NC(=O)[C@H]2CC[C@H](C(=O)N3CCC(CCNC(=O)c4cc(Oc5ccc(NC(=O)Nc6cc(C(C)(C)C)on6)cc5)ccn4)CC3)CC2)C(C)(C)C)cc1    86
Cc1ncsc1-c1ccc([C@H](C)NC(=O)[C@@H]2C[C@@H](O)CN2C(=O)[C@@H](NC(=O)CCOCCOCCOCCNC(=O)c2cc(Oc3ccc(NC(=O)Nc4cc(C(C)(C)C)on4)cc3)ccn2)C(C)(C)C)cc1 [MA49, reference compound]    93.2
Cc1ncsc1-c1ccc([C@H](C)NC(=O)[C@@H]2C[C@@H](O)CN2C(=O)[C@@H](NC(=O)[C@H]2CC[C@H](C(=O)N3CCN(CCNC(=O)c4cc(Oc5ccc(NC(=O)Nc6cc(C(C)(C)C)on6)cc5)ccn4)CC3)CC2)C(C)(C)C)cc1    94.9
CNC(=O)c1cc(Oc2ccc(NC(=O)Nc3cc(C(C)(C)C)on3)cc2)ccn1 [MA68, reference compound]    93.6
